Provide the recorded Ki for the entries that follow.
- System: HPK1 (Homo sapiens)
- Sequence (Q92918 whole entry, looked up): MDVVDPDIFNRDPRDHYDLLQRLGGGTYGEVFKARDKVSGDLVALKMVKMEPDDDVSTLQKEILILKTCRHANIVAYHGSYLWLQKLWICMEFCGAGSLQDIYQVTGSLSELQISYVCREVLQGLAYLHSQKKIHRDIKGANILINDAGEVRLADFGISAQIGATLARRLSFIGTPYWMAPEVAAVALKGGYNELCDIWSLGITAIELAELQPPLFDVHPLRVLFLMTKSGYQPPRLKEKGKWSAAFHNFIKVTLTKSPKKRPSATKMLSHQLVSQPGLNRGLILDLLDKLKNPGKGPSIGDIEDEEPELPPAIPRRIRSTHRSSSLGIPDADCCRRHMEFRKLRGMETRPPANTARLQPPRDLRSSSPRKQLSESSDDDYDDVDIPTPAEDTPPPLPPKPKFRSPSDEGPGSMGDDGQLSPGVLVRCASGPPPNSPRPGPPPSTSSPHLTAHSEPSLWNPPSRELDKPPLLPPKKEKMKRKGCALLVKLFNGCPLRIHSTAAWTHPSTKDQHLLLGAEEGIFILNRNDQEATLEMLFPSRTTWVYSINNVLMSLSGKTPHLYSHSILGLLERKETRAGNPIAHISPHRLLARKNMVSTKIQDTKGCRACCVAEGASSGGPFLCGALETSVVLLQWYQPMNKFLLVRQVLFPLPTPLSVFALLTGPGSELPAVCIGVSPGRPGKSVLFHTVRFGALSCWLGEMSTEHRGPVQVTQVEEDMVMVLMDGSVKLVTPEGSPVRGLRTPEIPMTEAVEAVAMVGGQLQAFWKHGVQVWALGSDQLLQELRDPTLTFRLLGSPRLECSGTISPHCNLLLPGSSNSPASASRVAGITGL
- Assay text: HPK1 Kinase Binding Assay
- Condition details: active HPK1 (SignalChem M23-11G), tracer 222, LanthaScreen Eu-Anti GST antibody, one hour incubation at 25° C.

Ask: State its Ki for this compound: "CCc1nc2c(N3C[C@@H](N)C[C@H]3CO)c(NC(=O)c3ccnc(-c4c(F)cccc4OC)n3)ccc2s1"
Reply: < 100 nM

Ask: State its Ki for this compound: "COc1cccc(F)c1-c1nccc(C(=O)Nc2ccc3sc(C)nc3c2N2C[C@H](N)C[C@H]2CO)n1"
Reply: < 100 nM

Ask: State its Ki for this compound: "[2H]C([2H])([2H])Oc1ccc(C#N)c(F)c1-c1nccc(C(=O)Nc2ccc3sc(C)nc3c2N2C[C@H](N)C[C@H]2CO)n1"
Reply: < 100 nM

Ask: State its Ki for this compound: "COCCc1nc2c(N3CCC[C@H]3CN)c(NC(=O)c3ccnc(-c4c(F)cccc4OC)n3)ccc2s1"
Reply: < 100 nM

Ask: State its Ki for this compound: "COc1ccc(-c2cnn(C)c2)c(F)c1-c1nccc(C(=O)Nc2ccc3sc(C)nc3c2N2C[C@H](N)C[C@H]2CO)n1"
Reply: < 100 nM

Ask: State its Ki for this compound: "COc1cccc(F)c1-c1nccc(C(=O)Nc2ccc3sc(C)nc3c2N2C[C@H](NC(C)C)C[C@H]2CO)n1"
Reply: < 100 nM

====

- System: HPK1
- Assay text: HPK1 Kinase Binding Assay
- Condition details: active HPK1 (SignalChem M23-11G), tracer 222, LanthaScreen Eu-Anti GST antibody, one hour incubation at 25° C.
Measurement name: Ki

Ask: State its Ki for this molecule: "Cc1nc2c(N3CC[C@@H](N)C3)c(NC(=O)c3ccnc(-c4c(F)cccc4C(F)(F)F)n3)ccc2s1"
Reply: < 100 nM

Origin of values: patent US10899755B2
